run_description: Antiinflammatory activity in mouse RAW264.7 cells assessed as inhibition of LPS-induced NO production after 24 hrs in presence of LPS by Griess reagent based assay
Assay type: functional, cell-based
conditions: RAW264.7, 24 h
As shown below, each of these molecules has a reported pIC50 value.
Notebook: values listed as pIC50 are -log10 of the concentration (mol/L).

* COc1ccc2c(c1)c(CC(=O)O)c(C)n2C(=O)c1ccc(Cl)cc1 | 4.78

The reported pIC50 of the molecule CC1=CC(=O)O[C@]12C[C@@H]1[C@@]3(C)CCCC(C)(C)[C@@H]3C[C@H](O)[C@@]1(C)O2 was 4.30
